Experiment: Safety study in healthy volunteers: pharmacodynamic parameters (plasma cGMP)
Format: in vivo, human
Settings: human, in vivo, 0.7 ug/kg, mean ± SD, read-out: t½ (converted)
Positions of bridges follow the written chain, without caps; N, C: chain ends. Non-standard residues stand in square brackets, D forms with d. Residues, ends and D or L forms follow the SMILES beside them. *: point of attachment. X1 = N=C(N)NCCC[C@H]1C(=O)N[C@@H](C(N)=O)CN1*; dNle = CCCC[C@@H](N)C(=O)O; Heptanoyl = CCCCCCC(=O)*
MEASURE_NAME: half-life (h)

[
  {
    "COMPOUND": "CCCCCCC(=O)N[C@H]1CSSC[C@@H](C(=O)N[C@@H](Cc2ccc(O)cc2)C(=O)N2C[C@H](C(N)=O)NC(=O)[C@@H]2CCCNC(=N)N)NC(=O)[C@H](CO)NC(=O)[C@H]([C@@H](C)CC)NC(=O)[C@H](CCCNC(=N)N)NC(=O)[C@H](CC(=O)O)NC(=O)[C@@H](CCCC)NC(=O)[C@H](CCCNC(=N)N)NC(=O)CNC(=O)[C@@H](C)NC(=O)[C@H](Cc2ccccc2)NC(=O)[C@H](Cc2c[nH]cn2)NC1=O [mimetic of formula IV] (Heptanoyl-CHF[dA]GR[dNle]DRISCY-X1; disulfide 1-12)",
    "QUANTITATIVE_RESULT": 3.03
  }
]
